# Tested on: BDF1 mice, s.c. Lewis lung carcinoma, T/C %
# ASSAY OVERVIEW: NCI In Vivo Anticancer Drug Screen. Data for tumor model Lewis Lung Carcinoma (subcutaneous) in B6D2F1 (BDF1) mice
# ASSAY CONTEXT: endpoint: median survival time; dose: 3.12 mg/kg/injection; schedule: Q01DX009 (ip); vehicle: Klucel (hydroxypropylcellulose) (HPC); higher = longer survival
Results filed as inconclusive are left out.
VALUE TYPE: T/C

Look over these answered cases.
C=C1C(=O)OC2CC1C(O)C/C(C)=C/CC/C(C)=C/C(O)CC2C (stereo not given): 108 % of control
Nc1nc2c(ncn2C2OC(CO)C(O)C2N)c(=O)[nH]1 (stereo not given): 99 % of control
C=C1C(=O)OC2C3OC(C)(CCC(O)C3COC(C)=O)CC(OC(=O)/C(=C/C)COC(C)=O)C12 (stereo not given): 107 % of control
O=NN(CCCl)C(=O)Nc1ccc(I)cc1: 92 % of control

Continue with the compound presented below.
Input Nc1nc(=S)c2[nH]c(N=Nc3ccc(S(=O)(=O)Nc4ncccn4)cc3)nc2[nH]1 . Output T/C: 95 % of control

Origin of values: PubChem BioAssay AID270
